Target: 20S proteasome (Homo sapiens) (UniProt P49721+P20618+P28074+P28062+P28065+P28072+P25786+P25787+P25788+P25789+P28066+P60900+O14818+Q8TAA3+P40306+A5LHX3+P49720+P28070+Q99436)
Experimental Protocol: Negative allosteric modulation of SDS-activated human erythrocytes 20S proteasome assessed as reduction in yeast enolase degradation at 10 uM after 4 hr by SDS-PAGE analysis
Activity calls are given as the source filed them. The calls are words filed in the database; no cut-off is given here. Residues, ends and D or L forms follow the SMILES beside them.
Pick one and only one: T (active), F (inactive)

Task: Which outcome was entered for the compound CC(C)C[C@H](NC(=O)[C@H](Cc1ccc(O)cc1)NC(=O)[C@@H]1CCCN1C(=O)[C@@H]1CCCN1C(=O)[C@H](CCCNC(=N)N)NC(=O)[C@@H]1CCCN1C(=O)[C@H](CCCNC(=N)N)NC(=O)[C@H](CCCNC(=N)N)NC(=O)[C@@H](N)CCCNC(=N)N)C(=O)N1CCC[C@H]1C(=O)N[C@@H](CCCNC(=N)N)C(=O)N[C@@H](Cc1c[nH]c2ccccc12)C(=O)NCC(=O)O (H-RRRPRPPYLPRWG-OH) in this test?
Output: T

Task: Give the logged outcome of this assay for the following compound: CC(C)C[C@H](NC(=O)[C@H](Cc1ccc(O)cc1)NC(=O)[C@@H]1CCCN1C(=O)[C@@H]1CCCN1C(=O)[C@H](CCCNC(=N)N)NC(=O)[C@@H]1CCCN1C(=O)[C@H](CCCNC(=N)N)NC(=O)[C@H](CCCNC(=N)N)NC(=O)[C@@H](N)CCCNC(=N)N)C(=O)N1CCC[C@H]1C(=O)N[C@@H](CCCNC(=N)N)C(=O)O (H-RRRPRPPYLPR-OH)
Output: F

Task: Could you kindly confirm the outcome this assay logged for CC(C)C[C@H](NC(=O)[C@H](Cc1ccc(O)cc1)NC(=O)[C@H](CCCNC(=N)N)NC(=O)[C@H](CCCNC(=N)N)NC(=O)[C@@H](N)CCCNC(=N)N)C(=O)N1CCC[C@H]1C(=O)N[C@@H](CCCNC(=N)N)C(=O)N[C@@H](Cc1c[nH]c2ccccc12)C(=O)NCC(N)=O (H-RRRYLPRWG-NH2) ?
Output: F

Task: Assay result, entry CC(C)C[C@H](NC(=O)[C@H](Cc1ccc(O)cc1)NC(=O)[C@@H]1CCCN1C(=O)[C@@H]1CCCN1C(=O)[C@H](CCCNC(=N)N)NC(=O)[C@@H]1CCCN1C(=O)[C@H](CCCNC(=N)N)NC(=O)[C@H](CCCNC(=N)N)NC(=O)[C@@H](N)CCCNC(=N)N)C(=O)N1CCC[C@H]1C(=O)N[C@@H](CCCNC(=N)N)C(=O)N[C@@H](Cc1ccccc1)C(=O)NCC(=O)O (H-RRRPRPPYLPRFG-OH) — outcome?
Output: T

---

Target: Proteasome Macropain subunit MB1 (Homo sapiens)
Sequence (whole entry): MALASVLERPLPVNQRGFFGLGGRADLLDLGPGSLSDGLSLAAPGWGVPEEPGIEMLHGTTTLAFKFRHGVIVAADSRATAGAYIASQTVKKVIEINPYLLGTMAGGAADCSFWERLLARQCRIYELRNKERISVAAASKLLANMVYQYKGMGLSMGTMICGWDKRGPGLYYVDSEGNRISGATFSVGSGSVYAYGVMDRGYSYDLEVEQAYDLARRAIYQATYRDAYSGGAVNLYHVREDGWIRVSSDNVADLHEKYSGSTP
Experimental Protocol: Positive allosteric modulation of latent human erythrocytes 20S proteasome chymotrypsin like activity up to 10 uM using LFP as substrate measured every 2 mins up to 60 mins by fluorescence assay
Activity calls are given as the source filed them. The rule behind the calls is not given here. Residues, ends and D or L forms follow the SMILES beside them.

Compound: CC(C)C[C@H](NC(=O)[C@H](Cc1ccc(O)cc1)NC(=O)[C@H](CCCNC(=N)N)NC(=O)[C@H](CCCNC(=N)N)NC(=O)[C@@H](N)CCCNC(=N)N)C(=O)N1CCC[C@H]1C(=O)N[C@@H](CCCNC(=N)N)C(=O)N[C@@H](Cc1c[nH]c2ccccc12)C(=O)NCC(=O)O (H-RRRYLPRWG-OH)
Activity: inactive
--
Compound: N=C(N)NCCC[C@H](NC(=O)[C@H](CCCNC(=N)N)NC(=O)[C@@H](N)CCCNC(=N)N)C(=O)N[C@@H](Cc1ccc(O)cc1)C(=O)N1CCC[C@H]1C(=O)N[C@@H](CCCNC(=N)N)C(=O)N[C@@H](Cc1c[nH]c2ccccc12)C(=O)NCC(=O)O (H-RRRYPRWG-OH)
Activity: inactive
--
Compound: CC(C)C[C@H](NC(=O)[C@H](Cc1ccc(O)cc1)NC(=O)[C@@H]1CCCN1C(=O)[C@@H]1CCCN1C(=O)[C@@H]1CCCN1C(=O)[C@@H]1CCCN1C(=O)[C@H](CCCNC(=N)N)NC(=O)[C@H](CCCNC(=N)N)NC(=O)[C@@H](N)CCCNC(=N)N)C(=O)N1CCC[C@H]1C(=O)N[C@@H](CCCNC(=N)N)C(=O)N[C@@H](Cc1c[nH]c2ccccc12)C(=O)NCC(=O)O (H-RRRPPPPYLPRWG-OH)
Activity: inactive
